settings: in isopropanol, 298.15 K
assay-endpoint: solubility (mole fraction)
Give your answer as a number; write no unit.

Query :: Determine its reported solubility (mole fraction): Nc1nc(=O)[nH]cc1F
Result :: 0.000314

----------
conditions: in DMF, 308.15 K
assay-endpoint: solubility (mole fraction)
Give your answer as a number; write no unit.

Query :: Determine its reported solubility (mole fraction): Nc1nc(=O)[nH]cc1F
Result :: 0.0022

----------
settings: in n-butanol, 288.15 K
assay-endpoint: solubility (mole fraction)

Query :: Determine its reported solubility (mole fraction): Nc1nc(=O)[nH]cc1F
Result :: 0.000332
